system.under.test: TRPV1 (Homo sapiens, UniProt Q8NER1)
Construct: host or cells: HEK293 or CHO
Sequence (Q8NER1 whole entry): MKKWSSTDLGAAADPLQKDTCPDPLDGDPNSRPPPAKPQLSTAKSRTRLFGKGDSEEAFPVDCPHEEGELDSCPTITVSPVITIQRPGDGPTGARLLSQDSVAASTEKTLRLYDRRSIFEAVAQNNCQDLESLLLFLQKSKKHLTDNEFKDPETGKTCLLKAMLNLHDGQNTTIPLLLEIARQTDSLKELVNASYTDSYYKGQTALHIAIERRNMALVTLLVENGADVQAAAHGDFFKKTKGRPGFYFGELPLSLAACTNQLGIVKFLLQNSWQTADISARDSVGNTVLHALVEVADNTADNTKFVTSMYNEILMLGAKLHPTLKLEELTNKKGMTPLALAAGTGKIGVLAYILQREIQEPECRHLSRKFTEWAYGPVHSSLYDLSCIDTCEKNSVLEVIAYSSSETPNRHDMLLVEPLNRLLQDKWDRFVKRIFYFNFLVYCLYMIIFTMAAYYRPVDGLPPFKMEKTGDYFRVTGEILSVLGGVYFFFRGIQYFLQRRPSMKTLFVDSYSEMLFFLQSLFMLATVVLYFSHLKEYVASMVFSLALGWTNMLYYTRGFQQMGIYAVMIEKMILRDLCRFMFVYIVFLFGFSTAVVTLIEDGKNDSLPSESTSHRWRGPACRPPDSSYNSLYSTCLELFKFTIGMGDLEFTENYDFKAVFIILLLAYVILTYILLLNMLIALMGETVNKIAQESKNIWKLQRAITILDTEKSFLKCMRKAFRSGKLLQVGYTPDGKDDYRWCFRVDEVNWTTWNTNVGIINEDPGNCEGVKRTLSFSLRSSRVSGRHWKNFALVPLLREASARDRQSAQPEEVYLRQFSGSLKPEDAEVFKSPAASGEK
experiment.summary: Ion channel panel (IonWorks Barracuda): TRPV1
Format: cell-based
condition.summary: peptide at 0.2 μM; 100% = no change, <100% = inhibition
Please go through the items and note down their Activity of TRPV1 with peptide, expressed as a percentage of the reference compound.
Report as a plain number; the unit % is understood.

Please give measured Activity of TRPV1 with peptide, expressed as a percentage of the reference compound of the following entry: 3 (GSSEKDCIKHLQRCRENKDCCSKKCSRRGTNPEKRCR) [compound 3]
107

Specify Activity of TRPV1 with peptide, expressed as a percentage of the reference compound for 14 (GSDRDSCIDKSRCSKYGYYQECQDCCKKAGHNGGTCMFFKCKCA) [compound 14] and stop.
133

Note Activity of TRPV1 with peptide, expressed as a percentage of the reference compound for the substance shown: 30 (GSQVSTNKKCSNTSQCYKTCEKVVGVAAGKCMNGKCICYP) [compound 30]
107

Let me know recorded Activity of TRPV1 with peptide, expressed as a percentage of the reference compound for 26 (GSVVIGQRCYRSPDCYSACKKLVGKATGKCTNGRCDC) [compound 26] , thanks.
116

Determine its reported Activity of TRPV1 with peptide, expressed as a percentage of the reference compound: 16 (GSQFCGTNGKPCVNGQCCGALRCVVTYHYADGVCLKMNP) [compound 16]
107

Write down Activity of TRPV1 with peptide, expressed as a percentage of the reference compound measured for item 20 (GSQIDTNVKCSGSSKCVKICIDRYNTRGAKCINGRCTCYP) [compound 20]
109

Write down Activity of TRPV1 with peptide, expressed as a percentage of the reference compound measured for item 32 (GSQDKCKKVYENYPVSKCQLANQCNYDCKLDKHARSGECFYDEKRNLQCICDYCEY) [compound 32]
99

// fetch Activity of TRPV1 with peptide, expressed as a percentage of the reference compound given entry 13 (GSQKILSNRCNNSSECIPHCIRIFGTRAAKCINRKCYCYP) [compound 13]
97

Give the value of Activity of TRPV1 with peptide, expressed as a percentage of the reference compound reported for the following: 9 (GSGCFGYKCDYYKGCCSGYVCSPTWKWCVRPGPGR) [compound 9]
112

====

system.under.test: Nav1.5 (Homo sapiens)
Sequence (Q14524 whole entry): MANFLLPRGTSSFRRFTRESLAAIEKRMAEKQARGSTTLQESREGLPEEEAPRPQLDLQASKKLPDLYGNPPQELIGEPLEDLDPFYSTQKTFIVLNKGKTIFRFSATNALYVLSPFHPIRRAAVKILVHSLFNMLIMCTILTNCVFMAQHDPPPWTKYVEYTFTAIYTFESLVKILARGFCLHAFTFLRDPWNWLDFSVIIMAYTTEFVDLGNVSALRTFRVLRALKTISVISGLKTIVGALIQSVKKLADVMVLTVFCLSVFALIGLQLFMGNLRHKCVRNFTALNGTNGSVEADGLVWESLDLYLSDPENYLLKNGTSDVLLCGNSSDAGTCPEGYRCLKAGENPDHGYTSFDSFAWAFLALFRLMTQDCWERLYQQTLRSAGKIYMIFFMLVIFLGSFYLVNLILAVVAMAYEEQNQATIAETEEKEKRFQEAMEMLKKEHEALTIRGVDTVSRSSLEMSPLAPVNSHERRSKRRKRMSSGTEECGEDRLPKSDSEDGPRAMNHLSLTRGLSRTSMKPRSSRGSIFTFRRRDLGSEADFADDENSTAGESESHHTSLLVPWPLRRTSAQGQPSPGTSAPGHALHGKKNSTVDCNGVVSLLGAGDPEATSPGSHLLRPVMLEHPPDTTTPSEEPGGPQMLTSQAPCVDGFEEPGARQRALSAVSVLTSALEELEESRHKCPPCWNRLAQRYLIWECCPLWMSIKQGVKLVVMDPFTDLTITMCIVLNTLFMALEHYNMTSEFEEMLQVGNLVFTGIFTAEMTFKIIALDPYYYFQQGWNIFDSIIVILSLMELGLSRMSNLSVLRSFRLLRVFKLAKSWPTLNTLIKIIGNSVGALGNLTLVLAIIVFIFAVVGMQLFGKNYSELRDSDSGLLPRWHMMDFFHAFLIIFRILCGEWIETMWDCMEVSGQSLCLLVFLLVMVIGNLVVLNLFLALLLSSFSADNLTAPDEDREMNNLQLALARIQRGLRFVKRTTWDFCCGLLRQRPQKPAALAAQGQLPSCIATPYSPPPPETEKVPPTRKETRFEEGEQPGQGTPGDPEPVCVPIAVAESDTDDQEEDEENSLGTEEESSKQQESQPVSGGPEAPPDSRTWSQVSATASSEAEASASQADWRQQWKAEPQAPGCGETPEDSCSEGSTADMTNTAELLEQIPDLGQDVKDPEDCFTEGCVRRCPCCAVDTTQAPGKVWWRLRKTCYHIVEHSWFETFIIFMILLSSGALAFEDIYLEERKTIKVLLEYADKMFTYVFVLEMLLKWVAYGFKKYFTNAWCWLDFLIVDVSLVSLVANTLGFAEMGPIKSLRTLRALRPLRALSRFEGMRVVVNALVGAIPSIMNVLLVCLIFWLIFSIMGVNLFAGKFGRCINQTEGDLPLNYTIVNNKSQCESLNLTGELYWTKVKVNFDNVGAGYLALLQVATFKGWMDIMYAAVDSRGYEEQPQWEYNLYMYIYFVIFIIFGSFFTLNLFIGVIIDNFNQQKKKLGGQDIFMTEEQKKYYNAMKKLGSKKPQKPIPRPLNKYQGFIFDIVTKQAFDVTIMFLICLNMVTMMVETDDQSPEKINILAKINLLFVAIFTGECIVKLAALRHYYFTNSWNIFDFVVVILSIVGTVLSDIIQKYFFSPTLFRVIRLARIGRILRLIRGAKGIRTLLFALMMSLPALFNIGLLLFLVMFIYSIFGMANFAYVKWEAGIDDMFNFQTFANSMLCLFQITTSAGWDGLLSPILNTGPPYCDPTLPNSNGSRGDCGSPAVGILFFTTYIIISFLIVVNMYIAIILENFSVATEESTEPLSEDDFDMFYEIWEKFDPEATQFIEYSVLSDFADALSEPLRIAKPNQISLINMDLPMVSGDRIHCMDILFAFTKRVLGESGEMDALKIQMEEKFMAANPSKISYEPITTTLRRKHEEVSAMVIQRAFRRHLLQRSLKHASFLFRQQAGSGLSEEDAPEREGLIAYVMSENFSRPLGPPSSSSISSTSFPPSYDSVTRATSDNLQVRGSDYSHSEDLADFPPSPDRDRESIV
experiment.summary: in vitro
condition.summary: peptide at 20 μM; second of two Nav1.5 columns (probably TP2); 100% = no change
Kindly state Activity of Nav1.5 with peptide (percentage of the reference compound) for each of the entries shown.
For clarity, give the value followed by its unit.

Check the records and state Activity of Nav1.5 with peptide (percentage of the reference compound) for 34 (GGYSRCQLQGFNCVVRSYGLPTIPCCRGLTCRSYFPGSTYGRCQRY) [compound 34]
101%

Supply recorded Activity of Nav1.5 with peptide (percentage of the reference compound) for 26 (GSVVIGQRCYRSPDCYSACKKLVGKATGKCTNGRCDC) [compound 26] here.
94%

Report Activity of Nav1.5 with peptide (percentage of the reference compound), nothing else, for this substance: 25 (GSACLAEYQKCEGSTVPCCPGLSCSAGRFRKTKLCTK) [compound 25]
87%

Please look at this substance and report its Activity of Nav1.5 with peptide (percentage of the reference compound): 29 (GSVFINVKCRGSPECLPKCKEAIGKSAGKCMNGKCKCYP) [compound 29]
99%

Tell us which Activity of Nav1.5 with peptide (percentage of the reference compound) value is on record for 32 (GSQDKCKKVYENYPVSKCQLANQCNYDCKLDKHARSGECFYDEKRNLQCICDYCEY) [compound 32]
90%

Supply measured Activity of Nav1.5 with peptide (percentage of the reference compound) of 30 (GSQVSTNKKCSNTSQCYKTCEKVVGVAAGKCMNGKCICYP) [compound 30] in your reply.
96%

Read off the recorded Activity of Nav1.5 with peptide (percentage of the reference compound) for 3 (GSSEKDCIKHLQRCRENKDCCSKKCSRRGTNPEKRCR) [compound 3]
115%

Specify measured Activity of Nav1.5 with peptide (percentage of the reference compound) for 36 (GSAQEPVKGPVSTKPGSCPIILIRCAMLNPPNRCLKDTDCPGIKKCCEGSCGMACFVPQ) [compound 36] .
112%
